- Assay Text: qHTS assay to test for compound auto fluorescence at 590 nm (red) in HepG2 cell free culture (AID 720684); further: on the % scale 0 is the no-effect control and ±100 the full control effect
- Stated Conditions: cell-free medium autofluorescence, red 540/590 nm; series mostly up to 91.3 µM
Activity calls are given as the source filed them. The call rests on the fitted dose curve; in most records, active means well fitted curve in the direction sought with a large enough effect in the repeat runs; inconclusive means weak or mixed curves; inactive means flat fitted curve, though single readings scatter.
Readout Kind: fluorescence, % of Rose Bengal

Below, 4 compounds whose answers are already recorded.
{"Compound": "O=C(O)CC(=O)C(=O)O", "Readout Kind": "fluorescence, % of Rose Bengal", "Observed Measurement": "inactive"}
{"Compound": "C/C=C/C(=O)CC", "Readout Kind": "fluorescence, % of Rose Bengal", "Observed Measurement": "0.0791% [at 18.6 µM] (inactive)"}
{"Compound": "CC(=O)[O][Al]", "Readout Kind": "fluorescence, % of Rose Bengal", "Observed Measurement": "inactive"}
{"Compound": "O=C(O)CNCC(=O)O", "Readout Kind": "fluorescence, % of Rose Bengal", "Observed Measurement": "-0.109% [at 3.72 µM] (inactive)"}

// `NCC(=O)CCC(=O)O` : fluorescence, % of Rose Bengal value = inactive

// COc1cc2nc(N(C)CCCNC(=O)C3CCCO3)nc(N)c2cc1OC (stereo not given) : fluorescence, % of Rose Bengal value = -0.324% [at 18.6 µM] (inactive)

// `COc1cc(C(=O)OCCCN2CCCN(CCCOC(=O)c3cc(OC)c(OC)c(OC)c3)CC2)cc(OC)c1OC` : fluorescence, % of Rose Bengal value = inactive

// `O=S(=O)(Oc1ccc(Cl)cc1)c1ccccc1` : fluorescence, % of Rose Bengal value = inactive

// `O=C(Cl)c1cc(C(=O)Cl)cc(C(=O)Cl)c1` : fluorescence, % of Rose Bengal value = inactive

// COCC(C)OC(C)=O (stereo not given) : fluorescence, % of Rose Bengal value = inactive

Data provenance: PubChem BioAssay (Tox21)
